Field: Ratio of GSPT1 DC50/Cyclin E1 DC50. Provide a value for each of the molecules that follow.
measured_on: Cyclin E1 (Homo sapiens, UniProt P24864+Q96SW2)
Sequence (P24864 whole entry): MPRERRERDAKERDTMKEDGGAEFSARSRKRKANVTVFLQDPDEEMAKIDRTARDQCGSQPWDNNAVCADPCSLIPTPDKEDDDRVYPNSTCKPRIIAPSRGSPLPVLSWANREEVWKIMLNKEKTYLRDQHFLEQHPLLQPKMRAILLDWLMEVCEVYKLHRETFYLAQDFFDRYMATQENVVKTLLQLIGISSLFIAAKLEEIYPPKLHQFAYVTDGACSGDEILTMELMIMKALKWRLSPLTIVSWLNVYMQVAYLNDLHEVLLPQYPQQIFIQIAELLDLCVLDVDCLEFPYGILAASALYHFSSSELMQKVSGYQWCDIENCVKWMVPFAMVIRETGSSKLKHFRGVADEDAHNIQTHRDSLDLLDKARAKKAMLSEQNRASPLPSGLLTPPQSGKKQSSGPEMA
Sequence (Q96SW2 whole entry): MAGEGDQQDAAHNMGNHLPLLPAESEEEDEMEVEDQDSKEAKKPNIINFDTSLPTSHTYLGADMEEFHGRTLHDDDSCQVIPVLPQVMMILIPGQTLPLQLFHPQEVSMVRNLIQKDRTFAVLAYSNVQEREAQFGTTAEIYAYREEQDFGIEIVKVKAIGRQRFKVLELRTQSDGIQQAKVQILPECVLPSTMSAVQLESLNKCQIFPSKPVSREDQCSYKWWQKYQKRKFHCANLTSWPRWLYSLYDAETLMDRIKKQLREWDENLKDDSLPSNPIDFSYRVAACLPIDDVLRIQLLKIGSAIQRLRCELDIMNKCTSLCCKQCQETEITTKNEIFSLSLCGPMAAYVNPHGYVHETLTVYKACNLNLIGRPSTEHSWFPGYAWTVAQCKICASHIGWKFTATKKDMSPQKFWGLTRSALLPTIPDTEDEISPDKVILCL
Sequence (Q16531 whole entry partner): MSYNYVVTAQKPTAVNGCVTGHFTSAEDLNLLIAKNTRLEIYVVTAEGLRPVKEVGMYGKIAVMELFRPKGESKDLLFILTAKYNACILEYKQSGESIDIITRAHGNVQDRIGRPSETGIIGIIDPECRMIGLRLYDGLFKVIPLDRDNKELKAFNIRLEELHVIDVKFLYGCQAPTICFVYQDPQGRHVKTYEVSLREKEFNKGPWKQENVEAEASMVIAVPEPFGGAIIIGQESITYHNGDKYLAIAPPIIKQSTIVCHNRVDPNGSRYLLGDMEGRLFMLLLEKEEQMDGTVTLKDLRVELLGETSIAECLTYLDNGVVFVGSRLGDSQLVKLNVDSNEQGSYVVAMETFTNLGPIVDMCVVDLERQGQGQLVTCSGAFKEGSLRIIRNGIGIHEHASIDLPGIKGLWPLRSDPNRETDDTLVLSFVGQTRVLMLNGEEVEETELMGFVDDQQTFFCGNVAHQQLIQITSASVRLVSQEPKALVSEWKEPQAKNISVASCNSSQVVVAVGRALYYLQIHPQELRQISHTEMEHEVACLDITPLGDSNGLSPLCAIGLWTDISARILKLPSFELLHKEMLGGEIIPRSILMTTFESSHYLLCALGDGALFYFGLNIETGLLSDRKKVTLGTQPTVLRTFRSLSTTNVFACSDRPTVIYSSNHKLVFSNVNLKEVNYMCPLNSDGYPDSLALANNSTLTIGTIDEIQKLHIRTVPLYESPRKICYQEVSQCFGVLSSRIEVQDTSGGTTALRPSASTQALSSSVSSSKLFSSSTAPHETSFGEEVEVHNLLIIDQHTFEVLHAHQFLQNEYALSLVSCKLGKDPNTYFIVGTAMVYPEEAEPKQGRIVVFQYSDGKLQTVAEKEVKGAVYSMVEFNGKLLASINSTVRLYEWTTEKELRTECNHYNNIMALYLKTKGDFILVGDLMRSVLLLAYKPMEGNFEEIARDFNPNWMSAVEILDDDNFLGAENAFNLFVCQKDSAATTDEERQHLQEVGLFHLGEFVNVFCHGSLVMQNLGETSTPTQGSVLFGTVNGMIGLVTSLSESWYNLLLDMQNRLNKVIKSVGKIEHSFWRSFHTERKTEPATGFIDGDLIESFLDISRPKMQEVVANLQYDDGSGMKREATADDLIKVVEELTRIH
protocol_details: Cyclin E1 Cellular Degradation Assay (MSD)
Format: cell-based
Design: endogenous in cells; host or cells: OVCAR3
condition_notes: selectivity for degradation of Cyclin E1 over GSPT1

Consider the worked cases shown below.
- COc1cc(Oc2ccccc2)ccc1NC(=O)OCc1ccc2c(c1OC)C(=O)N(C1CCC(=O)NC1=O)C2 (stereo not drawn): >41
- CC(C)Oc1c(COC(=O)Nc2ccc(Oc3cccc(F)c3F)cc2)ccc2c1C(=O)N(C1CCC(=O)NC1=O)C2 (stereo not drawn): >95
- COc1c(COC(=O)Nc2ccc(Oc3cccc(F)c3)cc2C)ccc2c1C(=O)N(C1CCC(=O)NC1=O)C2 (stereo not drawn): >136
- COc1c(COC(=O)Nc2ccc(Oc3cc(F)cc(F)c3)cc2)ccc2c1C(=O)N(C1CCC(=O)NC1=O)C2 (stereo not drawn): >254
- COc1c(COC(=O)Nc2ccc(Oc3ccc(F)c(F)c3)cc2F)ccc2c1C(=O)N(C1CCC(=O)NC1=O)C2 (stereo not drawn): >196

Proceeding to the next molecule to report its Ratio of GSPT1 DC50/Cyclin E1 DC50.
Noted for O=C1CCC(N2Cc3ccc(COC(=O)Nc4ccc(Oc5ccc(F)c(F)c5)cc4)c(OCC(=O)N4CCOCC4)c3C2=O)C(=O)N1 (stereo not drawn) : its Ratio of GSPT1 DC50/Cyclin E1 DC50 reads >127
